# ASSAY SUMMARY: Toxicity in ip dosed mouse
# Format: organism-based
# CONDITION NOTES: in vivo
ASSAY ENDPOINT: LD50 (mg/kg)

>>> result_number("O=c1[nH]nc2n(c1=O)CCN2c1cccc(Cl)c1")
2000

###

# Test system: Mus musculus
# ASSAY SUMMARY: Toxicity in ip dosed mouse
# Format: organism-based
# CONDITION NOTES: in vivo
ASSAY ENDPOINT: log(1/LD50)

>>> result("O=c1[nH]nc2n(c1=O)CCN2c1cccc(Cl)c1")
-3.3
>>> result("O=c1[nH]nc2n(c1=O)CCN2c1ccccc1")
-3.15
>>> result("O=c1[nH]nc2n(c1=O)CCN2c1ccc(Cl)cc1")
-3.3
>>> result("Cc1ccc(N2CCn3c2n[nH]c(=O)c3=O)cc1")
-3.25
>>> result("COc1ccc(N2CCn3c2n[nH]c(=O)c3=O)cc1")
-3.18
>>> result("COc1ccccc1N1CCn2c1n[nH]c(=O)c2=O")
-3.04

###

Entries and their measured logP follow.
# ASSAY SUMMARY: Lipophilicity, Log p by HPLC
# Assay type: physicochemical
ASSAY ENDPOINT: logP

>>> result_number("O=c1[nH]nc2n(c1=O)CCN2c1ccc(Cl)c(Cl)c1")
2.63
>>> result_number("O=c1[nH]nc2n(c1=O)CCN2c1ccccc1")
1.31
>>> result_number("Cc1ccc(N2CCn3c2n[nH]c(=O)c3=O)cc1")
1.84
>>> result_number("O=c1[nH]nc2n(c1=O)CCN2c1ccc(Cl)cc1")
1.99
>>> result_number("COc1ccccc1N1CCn2c1n[nH]c(=O)c2=O")
0.97
>>> result_number("COc1ccc(N2CCn3c2n[nH]c(=O)c3=O)cc1")
1.21
>>> result_number("Cc1ccccc1N1CCn2c1n[nH]c(=O)c2=O")
1.16
>>> result_number("O=c1[nH]nc2n(c1=O)CCN2c1cccc(Cl)c1")
2
